# Viscosity reading of dispersion listing for each entry below
Assay: viscosity readings of titanium dioxide dispersions, Table VI B
Assay type: physicochemical
Conditions: Brookfield LVT-D @ 12 RPM, TiO2 50%, pass 6
Assay readout: Viscosity reading of dispersion (cps)

CCCCCCCCCCCCCCCCOC(=O)CCCCCCCC=CCC(CCCCCC)OC(=O)c1ccccc1 (stereo not shown) [BCR, benzoic acid ester of cetyl-ricinoleate] | 1950
CCCCCCC(CC=CCCCCCCCC(=O)OCC(COC(=O)CCCCCCCC=CCC(CCCCCC)OC(=O)c1ccccc1)OC(=O)CCCCCCCC=CCC(CCCCCC)OC(=O)c1ccccc1)OC(=O)c1ccccc1 (stereo not shown) [BCO] | 6786
CCCCCCC(CCCCCCCCCCC(=O)OCC(CC)CCCC)OC(=O)c1ccccc1 (stereo not shown) [BOHS] | 1326

====

# TACK listing for each entry below
Assay: organoleptic evaluation of tactile characteristics on the forearm, Table VII
Assay type: in vivo, individuals
Details: rating, 1 = Worst 5 = Best
Assay readout: TACK

CCCCCCCCCCCCCCCCOC(=O)CCCCCCCC=CCC(CCCCCC)OC(=O)c1ccccc1 (stereo not shown) [BCR, benzoic acid ester of cetyl-ricinoleate] | 3
CCCCCCC(CC=CCCCCCCCC(=O)OCC(COC(=O)CCCCCCCC=CCC(CCCCCC)OC(=O)c1ccccc1)OC(=O)CCCCCCCC=CCC(CCCCCC)OC(=O)c1ccccc1)OC(=O)c1ccccc1 (stereo not shown) [BCO] | 2
CCCCCCC(CCCCCCCCCCC(=O)OCC(COC(=O)CCCCCCCCCCC(CCCCCC)OC(=O)c1ccccc1)OC(=O)CCCCCCCCCCC(CCCCCC)OC(=O)c1ccccc1)OC(=O)c1ccccc1 (stereo not shown) [BHCO] | 3
CCCCCCC(CCCCCCCCCCC(=O)OCC(CC)CCCC)OC(=O)c1ccccc1 (stereo not shown) [BOHS] | 3

====

# Hagman reading (particle size) listing for each entry below
Assay: Hagman readings (particle size), titanium dioxide dispersion, Table VI A
Assay type: physicochemical
Settings: TiO2 50%, pass 6
Assay readout: Hagman reading (particle size)

CCCCCCCCCCCCCCCCOC(=O)CCCCCCC/C=C\C[C@H](O)CCCCCC [CR, Cetyl Ricinoleate, reference compound] | ≤ 43 μm
CCCCCCC(CC=CCCCCCCCC(=O)OCC(COC(=O)CCCCCCCC=CCC(CCCCCC)OC(=O)c1ccccc1)OC(=O)CCCCCCCC=CCC(CCCCCC)OC(=O)c1ccccc1)OC(=O)c1ccccc1 (stereo not shown) | ≤ 8 μm
CCCCCCCCCCCCCCCCOC(=O)CCCCCCCC=CCC(CCCCCC)OC(=O)c1ccccc1 (stereo not shown) [BCR, benzoic acid ester of cetyl-ricinoleate] | ≤ 10 μm
CCCCCCC(CCCCCCCCCCC(=O)OCC(CC)CCCC)OC(=O)c1ccccc1 (stereo not shown) | ≤ 8 μm

====

Assay: sunscreen solubility: PARSOL 1789, Table IV B
Format: physicochemical
Conditions: 30° C., 15 gms sunscreen in 100 gms mixture
Assay readout: Sunscreen solubility (Parsol 1789)

CCCCCCC(CC=CCCCCCCCC(=O)OCC(COC(=O)CCCCCCCC=CCC(CCCCCC)OC(=O)c1ccccc1)OC(=O)CCCCCCCC=CCC(CCCCCC)OC(=O)c1ccccc1)OC(=O)c1ccccc1 (centres unmarked) | +
CCCCCCCCCCCCCCCCOC(=O)CCCCCCCC=CCC(CCCCCC)OC(=O)c1ccccc1 (centres unmarked) [BCR, benzoic acid ester of cetyl-ricinoleate] | +
CCCCCCC(CCCCCCCCCCC(=O)OCC(CC)CCCC)OC(=O)c1ccccc1 (centres unmarked) | +
CCCCCCCCCCCCCCCCOC(=O)CCCCCCC/C=C\C[C@H](O)CCCCCC [CR, Cetyl Ricinoleate, reference compound] | +
CCCCCCC(O)CCCCCCCCCCC(=O)OCC(CC)CCCC (centres unmarked) [OHS, octyl hydroxystearate, reference compound] | +
